The entries below come with measured inhibition at 10 µM values attached.
biological target: human GPR84 receptor (Homo sapiens, UniProt Q9NQS5); construct: host or cells: HEK293, transient transfection; assay: Gαi biosensor BRET assay in HEK293 cells (antagonism of ZQ-16); assay type: cell-based; details: HEK293, single concentration 10 μM (designated F)
Sequence (Q9NQS5 whole entry): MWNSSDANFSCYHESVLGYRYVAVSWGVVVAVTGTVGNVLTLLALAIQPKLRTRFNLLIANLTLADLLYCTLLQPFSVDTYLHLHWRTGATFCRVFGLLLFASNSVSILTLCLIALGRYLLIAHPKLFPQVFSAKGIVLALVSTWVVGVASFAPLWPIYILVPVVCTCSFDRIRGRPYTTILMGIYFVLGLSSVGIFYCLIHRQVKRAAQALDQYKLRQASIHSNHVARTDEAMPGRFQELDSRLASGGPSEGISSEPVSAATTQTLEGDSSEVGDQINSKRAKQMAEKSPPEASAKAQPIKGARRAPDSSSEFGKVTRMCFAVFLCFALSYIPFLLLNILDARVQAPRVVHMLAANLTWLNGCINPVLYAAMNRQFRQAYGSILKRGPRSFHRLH

Q. Consider the molecule CCc1cc(C#CCNC(=O)OC(C)(C)C)ccc1-c1cn(CC2CCCCO2)nn1 (stereo not drawn) and give its measured inhibition at 10 µM.
A. > 75%

Q. Fill blank: measured inhibition at 10 µM of the molecule Cc1cc(C#CCNc2ccccc2)ccc1-c1cn(CCC2CCCCO2)nn1 (stereo not drawn) is ____.
A. 25 to 50%

Q. Can you share its inhibition at 10 µM? I mean this molecule: COCC1(C)CN(c2ccc(-c3cn(CC4OCC(C)(C)CO4)nn3)c(N(C)C)c2)C1
A. > 75%

Q. Can you look up the measured inhibition at 10 µM of Cc1cc(C#CCNC(=O)OC(C)(C)C)cnc1-c1cn(CC2CCCCO2)nn1 (stereo not drawn) for me?
A. > 75%

Q. Entry under review: Cc1cc(N2CCN(C)CC2)ccc1-c1cn(C[C@H]2CCCCO2)nn1 . Reported inhibition at 10 µM?
A. ≤ 25%

Q. For the molecule Cc1cc(N2CCN(Cc3nccn3C)CC2)ccc1-c1cn(CC2CCCCO2)nn1 (stereo not drawn) , what inhibition at 10 µM is on record?
A. 25 to 50%

###

Here the recorded inhibition at 10 µM is given for each entry.
molecular target: human GPR84 receptor (Homo sapiens, UniProt Q9NQS5); construct: host or cells: HEK293, transient transfection; assay: Gαi biosensor BRET assay in HEK293 cells (antagonism of ZQ-16); assay type: cell-based; conditions: HEK293, single concentration 10 μM (designated F)

Answered examples (2):
Cc1cc(C2CCN(Cc3ccccn3)CC2)ccc1-c1cn(CC2CCCCO2)nn1 (stereo not drawn) [Compound I-440] :: ≤ 25%
Cc1cc(N2CC3(CCN(C)CC3)C2)ccc1-c1cn(CC2CCCCO2)nn1 (stereo not drawn) [Compound I-155] :: ≤ 25%

Q. What does the record list as inhibition at 10 µM for Cc1ccc(Cl)cc1N(C)c1cn(CC2OCC3(CC3)CO2)nn1 [Compound I-844] ?
A. 50 to 75%

Q. Given Cc1cc(N2CCC(C)(C)C2)cnc1-c1cn(CC2CCCCO2)nn1 (stereo not drawn) [Compound I-555] , state its recorded inhibition at 10 µM.
A. ≤ 25%

Q. Which inhibition at 10 µM value belongs to Cc1cc(N2CC(C)(Nc3ccccc3)C2)ccc1-c1cn(CC2CCCCO2)nn1 (stereo not drawn) [Compound I-537] ?
A. > 75%

###

molecular target: human GPR84 receptor (Homo sapiens); construct: host or cells: HEK293, transient transfection; test: Gαi biosensor BRET assay in HEK293 cells (antagonism of ZQ-16); assay type: cell-based; details: HEK293, single concentration 10 μM (designated F)
Overview of reported inhibition at 10 µM across a group of compounds:

Reference set, count: 6
Cc1cc(N2CCN(CC3CC4CCN3CC4)CC2)ccc1-c1cn(CC2CCCCO2)nn1 (stereo not shown) :: ≤ 25%
Cc1cc(C#CCN(C)C2CC2)ccc1-c1cn(CC2OCC(C)(C)CO2)nn1 :: > 75%
Cc1cc(C#CC2CC2)ccc1-c1cn(CC2COCCN2)nn1 (stereo not shown) :: ≤ 25%
CCc1cc(C#CC2CC2)cnc1-c1cn(CC2OCC(C)(C)O2)nn1 (stereo not shown) :: ≤ 25%
Cc1cc(C#CC2CC2)cnc1-c1cn(CC2OCCCO2)nn1 :: 50 to 75%
Cc1cc(N2CC3CCC2CN3Cc2ccccn2)ccc1-c1cn(CC2CCCCO2)nn1 (stereo not shown) :: 50 to 75%

Q. Quick check: inhibition at 10 µM of CC(=O)NC(C)(C)COc1ccc(-c2cn(CC3CCCCO3)nn2)c(C)c1 (stereo not shown) ?
A. 25 to 50%

Q. Recorded inhibition at 10 µM for Cc1cc(C#CC2CC2)ccc1Cc1cn(CC2CCCCO2)nn1 (stereo not shown) , please?
A. 25 to 50%

Q. Entry under review: COC(c1cn(CC2CC(C)(C)CO2)nn1)c1cc(C#CC2CC2)ccc1C (stereo not shown) . Reported inhibition at 10 µM?
A. > 75%

Q. Which measured inhibition at 10 µM value corresponds to Cc1cc(C#CCNC(C)C)ccc1-c1cn(CC2CCCCO2)nn1 (stereo not shown) ?
A. ≤ 25%

Q. I would be grateful if you could share the reported inhibition at 10 µM for CN(C)c1cc(N2CC(C)(C)C2)ccc1-c1cn(CC2CCCCO2)nn1 (stereo not shown) .
A. > 75%

Q. Dear colleague, I am looking for the recorded inhibition at 10 µM of the following compound: Cc1cc(N2CCN(C(C)c3ccccn3)CC2)ccc1-c1cn(CC2OCC(C)(C)CO2)cn1 (stereo not shown)
A. 50 to 75%

Q. Dear colleague, I am looking for the recorded inhibition at 10 µM of the following compound: COC(=O)N1CCCCC1Cn1cc(-c2ccc(C#CC3CC3)cc2C)nn1 (stereo not shown)
A. ≤ 25%

Q. For the compound shown here, Cc1ccc(C#CC2CC2)cc1S(=O)(=O)c1cn(CC2OCC(C)(C)CO2)nn1 , give the reported inhibition at 10 µM.
A. ≤ 25%

Q. Requested read-out: inhibition at 10 µM. Entry: Cc1ccc(C#CC2CC2)cc1C1(c2cn(CC3CCCCO3)nn2)CC1 (stereo not shown)
A. > 75%

Q. Name the reported inhibition at 10 µM value associated with the compound CC1(C)CN(c2ccc(-c3cn(CC4CCCCO4)nn3)c(OCCO)c2)C1 (stereo not shown)
A. > 75%

###

# maps each entry to its inhibition at 10 µM
target: human GPR84 receptor (Homo sapiens, UniProt Q9NQS5); construct: host or cells: HEK293, transient transfection; experiment: Gαi biosensor BRET assay in HEK293 cells (antagonism of ZQ-16); format: cell-based; conditions: HEK293, single concentration 10 μM (designated F)

Here is how some compounds turned out for inhibition at 10 µM.
Cc1cc(C#CC2CC2)ccc1-c1cn(CC2CC3(CC3)CO2)nn1 (stereo not shown) [Compound I-569] :: > 75%
Cc1ccc(-c2ccc(C3COC(=O)N3CC3CCCCO3)c(C)c2)cn1 (stereo not shown) [Compound I-407] :: ≤ 25%
Cc1cc(OCC(F)(F)F)cnc1-c1cn(CC2OCC(C)(C)CO2)nn1 [Compound I-638] :: ≤ 25%
Cc1c(-c2ccc(C#CCNc3ccccc3)cc2)nnn1CC1CCCCO1 (stereo not shown) [Compound I-235] :: 25 to 50%
Cc1cc(N2CCN(Cc3ccccn3)CC2)ccc1-c1cn(CC2OCC(C)(C)CO2)nn1 [Compound I-531] :: > 75%

Q. Record Cc1cc(N2CCN(C3(c4ccccn4)CC3)CC2)ccc1-c1cn(CC2CCCCO2)nn1 (stereo not shown) [Compound I-613] : what is its inhibition at 10 µM with human GPR84 receptor (Homo sapiens, UniProt Q9NQS5)?
A. ≤ 25%

Q. Missing value: inhibition at 10 µM, human GPR84 receptor (Homo sapiens, UniProt Q9NQS5), entry C(#CC1CC1)c1ccc(-c2cn(CC3CCCCO3)nn2)c(N2CCOCC2)c1 (stereo not shown) [Compound I-198] . Fill in?
A. 25 to 50%

Q. Given the entry Cc1cc(N2CC3(CCCN3Cc3ccccn3)C2)ccc1-c1cn(CC2CCCCO2)nn1 (stereo not shown) [Compound I-590] , what inhibition at 10 µM was observed with human GPR84 receptor (Homo sapiens, UniProt Q9NQS5)?
A. ≤ 25%

Q. Fill in the recorded inhibition at 10 µM for this compound, with human GPR84 receptor (Homo sapiens, UniProt Q9NQS5) as test system: Cc1cc(C#CC2CC2)ccc1-c1cn(CC2CCC(=O)O2)nn1 (stereo not shown) [Compound I-539]
A. ≤ 25%

Q. Recall the recorded inhibition at 10 µM for CN(C)c1cc(C#CC(C)(C)O)ccc1-c1cn(CC2OCC(C)(C)CO2)nn1 [Compound I-719] with human GPR84 receptor (Homo sapiens, UniProt Q9NQS5) and state it.
A. > 75%

###

target: human GPR84 receptor (Homo sapiens); construct: host or cells: HEK293, transient transfection; assay: Gαi biosensor BRET assay in HEK293 cells (antagonism of ZQ-16); type: cell-based; conditions: HEK293, single concentration 10 μM (designated F)
Catalogue of compounds with associated inhibition at 10 µM

Please review the entries below; each comes with its answer.
Cc1cc(C#CC2CC2)ccc1-c1cn(CC2OCC(F)(F)CO2)nn1 :: 50 to 75%
Cc1cc(N2CCN(Cc3ncco3)CC2)ccc1-c1cn(CC2CCCCO2)nn1 (stereo not drawn) :: > 75%

Q. Please give the measured inhibition at 10 µM for this compound: Cc1cc(N2CC3(CCN(c4ccccn4)CC3)C2)ccc1-c1cn(CC2CCCCO2)nn1 (stereo not drawn)
A. 50 to 75%

Q. Entry Cc1cc(C#CCNC(=O)OC(C)C)cnc1-c1cn(CC2CCCCO2)nn1 (stereo not drawn) : reported inhibition at 10 µM = ?
A. > 75%

Q. I would be grateful if you could share the reported inhibition at 10 µM for Cc1ccc(N2CC(C)(C)C2)cc1-c1cn(CC2CCCCO2)nn1 (stereo not drawn) .
A. ≤ 25%

Q. Quick one: inhibition at 10 µM for Cc1cc(N2CCCC(CO)C2)ccc1-c1cn(CC2CCCCO2)nn1 (stereo not drawn) ?
A. 25 to 50%

The reported numbers originate from patent US12617777B2.
